Just for reference, patent US20250270273A1 is where these values come from.

Target: T1, IFN-γ receptor (IFNGR; IFNGR1 and IFNGR2) on human cells (human, UniProt P15260 18-489; P38484 22-337)
T1 sequence (looked up) 1: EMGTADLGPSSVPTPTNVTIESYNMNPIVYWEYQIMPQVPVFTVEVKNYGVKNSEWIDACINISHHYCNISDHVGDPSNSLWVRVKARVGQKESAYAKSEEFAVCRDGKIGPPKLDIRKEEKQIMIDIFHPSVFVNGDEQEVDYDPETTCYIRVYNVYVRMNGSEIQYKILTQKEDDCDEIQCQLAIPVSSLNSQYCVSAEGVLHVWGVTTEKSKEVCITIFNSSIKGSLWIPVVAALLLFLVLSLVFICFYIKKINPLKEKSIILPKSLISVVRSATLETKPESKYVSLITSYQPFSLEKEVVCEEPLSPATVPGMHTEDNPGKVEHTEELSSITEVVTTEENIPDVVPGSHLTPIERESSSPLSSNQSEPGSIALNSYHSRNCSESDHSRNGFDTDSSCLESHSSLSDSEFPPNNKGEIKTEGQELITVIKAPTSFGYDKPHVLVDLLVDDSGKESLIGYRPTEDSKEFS
T1 sequence (looked up) 2: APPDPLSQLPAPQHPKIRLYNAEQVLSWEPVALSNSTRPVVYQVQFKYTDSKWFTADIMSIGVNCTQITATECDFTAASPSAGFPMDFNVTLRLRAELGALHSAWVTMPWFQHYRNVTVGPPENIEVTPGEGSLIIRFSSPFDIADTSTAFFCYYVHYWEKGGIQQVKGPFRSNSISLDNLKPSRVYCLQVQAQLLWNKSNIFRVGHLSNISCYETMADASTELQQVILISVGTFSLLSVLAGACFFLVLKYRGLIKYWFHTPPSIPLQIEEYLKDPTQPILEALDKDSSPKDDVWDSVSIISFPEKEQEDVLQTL
Assay: cell-based or functional assay
A collection of binders and their measured EC50 (ng/mL)-MFI of pSTAT1, Classical monocytes of human PBMCs
Supply the numeric figure in ng/mL, leaving out any unit text.

binder | readoutUnit | reported
Compound 1, mono-mPEG-MAL-10K-rhIFN-γ-1b-M135C (ligand, Cys135 thioether-linked to linear mPEG-maleimide of about 10,000 daltons (mPEG-MAL-10K), succinimide ring closed, also called mPEG-MAL-10K-M135C-IFN-γ; M135C 10K linear) MQDPYVKEAENLKKYFNAGHSDVADNGTLFLGILKNWKEESDRKIMQSQIVSFYFKLFKNFKDDQSIQKSVETIKEDMNVKFFNSNKKKRDDFEKLTNYSVTDLNVQRKAIHELIQVMAELSPAAKTGKRKRSQCLFRGR | ng/mL | 2.16
Compound 3, mono-mPEG2-ru-MAL-20K-rhIFN-γ-1b-M135C (ring closed) (ligand, Cys135 thioether-linked to branched mPEG2-maleimide of about 20,000 daltons (mPEG2-MAL-20K), succinimide ring closed, also called mPEG2-MAL-20K-M135C-IFN-γ; M135C 20K branched (RC)) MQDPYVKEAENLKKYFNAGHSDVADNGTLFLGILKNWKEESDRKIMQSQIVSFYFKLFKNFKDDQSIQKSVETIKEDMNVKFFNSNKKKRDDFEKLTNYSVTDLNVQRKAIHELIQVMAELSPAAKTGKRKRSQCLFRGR | ng/mL | 64.2
rhIFN-γ-1b (wild-type recombinant human interferon-γ-1b) (ligand, also called wt (rhIFN-γ-1b); WT IFN-γ-1b (Actimmune)) MQDPYVKEAENLKKYFNAGHSDVADNGTLFLGILKNWKEESDRKIMQSQIVSFYFKLFKNFKDDQSIQKSVETIKEDMNVKFFNSNKKKRDDFEKLTNYSVTDLNVQRKAIHELIQVMAELSPAAKTGKRKRSQMLFRGR | ng/mL | 0.3

// EC50 (ng/mL)-MFI of pSTAT1, Classical monocytes of human PBMCs value for Compound 2, mono-mPEG-MAL-20K-rhIFN-γ-1b-M135C (ligand, Cys135 thioether-linked to linear mPEG-maleimide of about 20,000 daltons (mPEG-MAL-20K), succinimide ring closed, also called mPEG-MAL-20K-M135C-IFN-γ; M135C 20K linear) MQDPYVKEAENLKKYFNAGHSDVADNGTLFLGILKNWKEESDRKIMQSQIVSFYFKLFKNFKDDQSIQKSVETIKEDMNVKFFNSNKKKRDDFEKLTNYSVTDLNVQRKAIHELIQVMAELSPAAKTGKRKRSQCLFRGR : 7.62
